# credit: ChEMBL document CHEMBL1127466

test system: Mus musculus; experiment: Narcotic antagonism was measured by using Anti-Straub tail (AST) test after subcutaneous administration; type: functional; conditions: sc
// log10 of ED50 lookup, one value per entry
measuredQuantity: log10 of ED50 (log10 of the value in mg/kg)

# chemicalStructure, testValue
records = [
    ("Oc1cccc2c1O[C@H]1[C@@H](O)CC[C@H]3CN(CC4CC4)CC[C@@]231", -0.26),
    ("C=CCN1CC[C@]23c4c5ccc(O)c4O[C@H]2C(=O)CC[C@@]3(O)[C@H]1C5", -1.70),
    ("Oc1cccc2c1O[C@H]1[C@H](O)CC[C@@H]3CN(CC4CC4)CC[C@@]231", -0.10),
    ("COc1cccc2c1O[C@H]1C(=O)CC[C@H]3CN(CC4CC4)CC[C@@]231", -0.47),
    ("COc1cccc2c1O[C@H]1[C@@H](O)CC[C@H]3CN(CC4CC4)CC[C@@]231", 0.15),
    ("CN1CC[C@]23c4cccc(O)c4O[C@H]2C(=O)CC[C@H]3C1", 0.15),
    ("O=C1CC[C@@H]2CN(CC3CC3)CC[C@@]23c2cccc(O)c2O[C@@H]13", 0.00),
    ("O=C1CC[C@H]2CN(CC3CC3)CC[C@@]23c2cccc(O)c2O[C@@H]13", -1.66),
    ("Oc1cccc2c1O[C@H]1CCC[C@H]3CN(CC4CC4)CC[C@@]231", -1.74),
]
